IC50 by entry:
- targetEntity: α-4,β-2 nicotinic acetycholine receptor (α4β2nAChR) (Rattus norvegicus, UniProt P09483+P12390)
- Construct: crude synaptic membrane preparations from rat cerebral cortex, striatum and hippocampus
- Sequence (P09483 31-630): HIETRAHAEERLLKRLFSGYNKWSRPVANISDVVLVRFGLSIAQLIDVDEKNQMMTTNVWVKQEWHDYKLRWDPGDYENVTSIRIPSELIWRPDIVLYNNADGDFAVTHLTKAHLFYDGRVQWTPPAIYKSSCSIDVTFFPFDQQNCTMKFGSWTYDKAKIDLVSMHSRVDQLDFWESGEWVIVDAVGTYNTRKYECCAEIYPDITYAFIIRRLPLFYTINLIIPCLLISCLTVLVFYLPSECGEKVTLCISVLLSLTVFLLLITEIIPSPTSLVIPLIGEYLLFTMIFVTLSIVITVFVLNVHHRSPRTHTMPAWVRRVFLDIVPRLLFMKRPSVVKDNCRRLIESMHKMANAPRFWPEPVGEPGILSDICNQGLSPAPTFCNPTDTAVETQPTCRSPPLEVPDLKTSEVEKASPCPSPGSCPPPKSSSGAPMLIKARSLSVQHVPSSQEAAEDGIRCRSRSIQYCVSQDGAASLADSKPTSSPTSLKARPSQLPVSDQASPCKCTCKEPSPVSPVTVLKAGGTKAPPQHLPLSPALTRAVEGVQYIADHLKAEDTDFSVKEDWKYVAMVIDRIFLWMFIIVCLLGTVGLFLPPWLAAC
- Sequence (P12390 25-500): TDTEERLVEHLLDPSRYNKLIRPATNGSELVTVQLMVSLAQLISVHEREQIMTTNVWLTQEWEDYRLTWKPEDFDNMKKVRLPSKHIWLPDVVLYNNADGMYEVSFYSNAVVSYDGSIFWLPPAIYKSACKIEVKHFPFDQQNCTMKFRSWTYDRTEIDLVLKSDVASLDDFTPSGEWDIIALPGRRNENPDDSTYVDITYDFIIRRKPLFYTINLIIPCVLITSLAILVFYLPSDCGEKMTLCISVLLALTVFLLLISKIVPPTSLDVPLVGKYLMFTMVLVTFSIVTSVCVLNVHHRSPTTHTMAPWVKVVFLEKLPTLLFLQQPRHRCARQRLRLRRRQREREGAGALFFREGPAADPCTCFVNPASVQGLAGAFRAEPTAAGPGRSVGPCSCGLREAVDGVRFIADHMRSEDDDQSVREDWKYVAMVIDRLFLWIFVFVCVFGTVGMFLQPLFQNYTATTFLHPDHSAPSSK
- assayName: Nicotinic acetylcholine receptor binding assay (3H-cytisine)

# molecule, measurementUnit, IC50
rows = [
    ("c1cncc(OCc2ncoc2[C@@H]2CCCN2)c1 [Compound 6]", "nM", 801),
    ("c1cncc(OCc2csc([C@@H]3CCCN3)n2)c1 [Compound 17]", "nM", 63.8),
]
